# tgt: UniProt:P02550
# Sequence (P02550 whole entry, looked up): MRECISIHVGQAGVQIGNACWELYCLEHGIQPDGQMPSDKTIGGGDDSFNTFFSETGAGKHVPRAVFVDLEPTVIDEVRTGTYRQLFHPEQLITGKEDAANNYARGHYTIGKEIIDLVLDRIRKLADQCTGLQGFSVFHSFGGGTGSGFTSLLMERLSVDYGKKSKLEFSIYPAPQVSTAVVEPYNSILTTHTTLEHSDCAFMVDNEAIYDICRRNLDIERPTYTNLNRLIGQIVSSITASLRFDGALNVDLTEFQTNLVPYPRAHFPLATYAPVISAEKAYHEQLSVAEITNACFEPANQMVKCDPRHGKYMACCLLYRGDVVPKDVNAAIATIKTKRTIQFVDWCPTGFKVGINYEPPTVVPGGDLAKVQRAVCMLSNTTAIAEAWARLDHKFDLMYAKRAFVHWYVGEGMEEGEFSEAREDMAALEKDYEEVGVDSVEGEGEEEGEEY
# experimental.protocol: Inhibitory activity against tubulin polymerization at 0.25 mM concentration
# Type: functional
Rule: t for inhibition not less than 5%, f for anything less.

Some entries whose results are on file:
COc1c(Br)cc2cc1Oc1ccc(cc1)CC(O)COC(=O)CC2 (stereo unspecified)
f
COc1cc2c(c(OC)c1OC)-c1ccc(OC)c(=O)cc1[C@@H](NC(C)=O)CC2
f
COc1ccc2cc1Oc1ccc(cc1)/C=C\COC(=O)CC2
t
COc1ccc2cc1Oc1ccc(cc1)CC(O)COC(=O)CC2 (stereo unspecified)
t

Q) Hi, just wondering whether COc1ccc2cc1Oc1ccc(cc1)C1OC1COC(=O)CC2 (stereo unspecified) shows inhibition of 5% or higher.
A) f

Data origin: ChEMBL document CHEMBL1132033
